Parameter: EC50. Scope: all listed entries.
system-tested: mutant CFTR (Homo sapiens, UniProt P13569, DEL508-508)
Construct: expressed in transfected cells
Sequence (P13569 with tags, fused parts or gaps DEL508-508): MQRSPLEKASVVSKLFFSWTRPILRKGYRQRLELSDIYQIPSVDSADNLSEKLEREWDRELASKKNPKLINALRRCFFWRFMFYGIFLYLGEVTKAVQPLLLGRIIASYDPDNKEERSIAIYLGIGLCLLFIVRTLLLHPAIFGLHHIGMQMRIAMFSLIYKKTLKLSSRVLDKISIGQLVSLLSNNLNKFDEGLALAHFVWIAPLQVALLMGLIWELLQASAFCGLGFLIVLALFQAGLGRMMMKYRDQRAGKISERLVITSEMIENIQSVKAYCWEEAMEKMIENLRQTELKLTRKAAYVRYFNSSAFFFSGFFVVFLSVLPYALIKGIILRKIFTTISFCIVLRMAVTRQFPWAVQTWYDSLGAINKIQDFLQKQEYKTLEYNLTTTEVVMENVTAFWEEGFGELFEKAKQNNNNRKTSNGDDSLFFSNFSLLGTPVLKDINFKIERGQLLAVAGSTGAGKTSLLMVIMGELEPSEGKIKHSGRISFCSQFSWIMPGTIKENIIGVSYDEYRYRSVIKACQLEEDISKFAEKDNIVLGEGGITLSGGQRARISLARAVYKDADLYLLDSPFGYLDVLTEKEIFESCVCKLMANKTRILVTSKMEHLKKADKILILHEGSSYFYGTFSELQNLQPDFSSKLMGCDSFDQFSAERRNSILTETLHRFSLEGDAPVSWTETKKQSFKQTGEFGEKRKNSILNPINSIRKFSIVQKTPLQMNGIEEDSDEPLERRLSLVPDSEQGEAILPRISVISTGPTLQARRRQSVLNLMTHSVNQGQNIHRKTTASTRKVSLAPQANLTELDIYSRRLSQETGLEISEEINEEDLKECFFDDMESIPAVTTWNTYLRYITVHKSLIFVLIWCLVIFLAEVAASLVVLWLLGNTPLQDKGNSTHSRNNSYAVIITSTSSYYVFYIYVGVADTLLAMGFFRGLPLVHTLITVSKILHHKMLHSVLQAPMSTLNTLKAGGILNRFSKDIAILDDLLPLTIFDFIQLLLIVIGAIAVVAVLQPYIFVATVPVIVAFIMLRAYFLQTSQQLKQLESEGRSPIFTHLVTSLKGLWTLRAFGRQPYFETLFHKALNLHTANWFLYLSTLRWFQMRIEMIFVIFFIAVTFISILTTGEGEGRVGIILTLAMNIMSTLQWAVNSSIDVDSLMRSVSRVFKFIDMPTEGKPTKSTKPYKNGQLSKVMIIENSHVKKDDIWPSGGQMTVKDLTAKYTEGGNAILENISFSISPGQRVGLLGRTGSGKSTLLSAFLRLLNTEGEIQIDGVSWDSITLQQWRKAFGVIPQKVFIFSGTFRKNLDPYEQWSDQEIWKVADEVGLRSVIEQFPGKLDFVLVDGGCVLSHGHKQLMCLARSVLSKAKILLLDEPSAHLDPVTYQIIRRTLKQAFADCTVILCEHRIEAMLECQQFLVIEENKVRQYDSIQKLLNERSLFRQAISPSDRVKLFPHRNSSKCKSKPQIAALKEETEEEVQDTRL
protocol-summary: Fluorescence (HS-YFP) assay for CFTR activity, corrector assay
Format: cell-based
condition-summary: CFBE41o- and FRT cells with stable expression of mutant CFTR, read-out: activity (EC50)

molecule | result
CN(C(=O)c1cccc(-n2nc(C(F)(F)F)c3c2CN(S(=O)(=O)c2ccc(C(=O)O)cc2)CC3)c1)c1ccc2c(c1)OCO2 | 1 to 2 µM

Value of EC50 reported for the molecule CN(C(=O)c1cccc(-n2nc(C(F)(F)F)c3c2C(Oc2ccc(C(=O)O)cc2)COC3)c1)c1cnc2c(c1)CCC2 (racemic) is 1 to 2 µM

Value of EC50 reported for the molecule "CN(C(=O)c1cccc(-n2nc(C(F)(F)F)c3c2CN(C(=O)C(C)(C)C)CC3)c1)c1ccc2c(c1)OCO2" is < 1 µM

Value of EC50 reported for the molecule CCC(C)N1CCc2c(c(C(F)(F)F)nn2-c2cccc(C(=O)N(C)c3ccc4c(c3)OCO4)c2)C1 (racemic) is < 1 µM

Value of EC50 reported for the molecule "CN(C(=O)c1cccc(-n2nc(C(F)(F)F)c3c2CCN(Cc2ccc(C(=O)O)cc2)C3)c1)c1ccc2c(c1)OCO2" is < 1 µM

Value of EC50 reported for the molecule CN(C(=O)c1cccc(-n2nc(C(F)(F)F)c3c2C(Oc2ccc(C(N)=O)cc2)CCC3)c1)c1ccc2c(c1)OC(F)(F)O2 (single isomer, unassigned) [Compound 284] is < 1 µM

Value of EC50 reported for the molecule "CN(C(=O)c1cccc(-n2nc(C(F)(F)F)c3c2CCN(Cc2cccc(C(=O)O)c2)C3)c1)c1ccc2c(c1)OCO2" is < 1 µM

Value of EC50 reported for the molecule "Cc1nc(S(=O)(=O)N2CCc3c(c(C(F)(F)F)nn3-c3cccc(C(=O)N(C)c4ccc5c(c4)OCO5)c3)C2)cn1C" is < 1 µM

Source listed as patent US10968225B2.
